Provenance of the data: PubChem BioAssay (EPA / NIEHS)

Read-out: Interferon-gamma inducible Protein 10 (IP10), CXCL10 (gene 3627)
Assay: BSK_BE3C_IP10: BioMAP Diversity Plus: BE3C Assay for Interferon-gamma inducible Protein 10 (IP10) Biomarker Activity (AID 2283034)
Details: primary human bronchial epithelial cells; actives raise or lower the signal
The source made the active and inactive calls. The calls were made as follows: active = hit-call score of the fitted dose curve at least 0.9, where 1 is the maximum; inactive = score below 0.9.
quantityMeasured: AC50

> print(dat)
                            molecularstring  quantitymeasured   valueobserved
1    CC(C)CCCCCCCOP(=O)(Oc1ccccc1)Oc1ccccc1              AC50  28 µM (active)
2                  CCCC[N+](CCCC)(CCCC)CCCC              AC50        inactive
3                CCCOC(=O)c1ccccc1C(=O)OCCC              AC50        inactive
4          COCC(=O)N(c1c(C)cccc1C)N1CCOC1=O              AC50        inactive
5                   C=CCN(CC=C)C(=O)C(Cl)Cl              AC50        inactive
6  CC1(C)[C@H](C(=O)O[C@H](C#N)c2cccc(Oc3ccccc3)c2)[C@@H]1C=C(Br)Br              AC50        inactive
